target: PDLIM1, O00151; assay: holdup assay; design: key: below the threshold = too weak to quantify, mostly under pKd 3.1 to 4; settings: plain residues with an end cap or a label only (N-terminal biotin on a linker: ado-ado)
Sequence (O00151 1-87): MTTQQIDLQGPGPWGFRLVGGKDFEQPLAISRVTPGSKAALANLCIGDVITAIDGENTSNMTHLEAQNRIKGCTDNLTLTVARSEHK
experimental_readout: pKd

INSERT INTO measurements (binder, experimental_readout, result) VALUES
  ('SVTSERETNI [SLC16A7, O60669]', 'pKd', 'below the threshold'),
  ('REEPDHSTEV [CCRL2, O00421]', 'pKd', 3.53),
  ('LAHVKHKEQI [AQP3, Q92482]', 'pKd', 'below the threshold'),
  ('GEDRSPPTAL [MKNK1, Q9BUB5]', 'pKd', 'below the threshold'),
  ('SFISKKEWYV [NECTIN1, Q15223]', 'pKd', 'below the threshold'),
  ('PTPDLPQTRV [KLHDC7A, Q5VTJ3]', 'pKd', 'below the threshold'),
  ('AAVENKVTDL [PLXNB1, O43157]', 'pKd', 3.77),
  ('TNSRHGETTV [FZD2, Q14332]', 'pKd', 'below the threshold'),
  ('NTANRRTTPV [CACNG2, Q9Y698]', 'pKd', 'below the threshold'),
  ('PSHPRLQTHV [KIRREL2, Q6UWL6]', 'pKd', 'below the threshold'),
  ('QSYPSKHDYV [CLDN18, P56856]', 'pKd', 'below the threshold'),
  ('NTLNRKTTPV [CACNG8, Q8WXS5]', 'pKd', 'below the threshold'),
  ('ARESQKVSHV [FAM110B, Q8TC76]', 'pKd', 'below the threshold'),
  ('GIKKITSTAL [RPS6KA3, P51812]', 'pKd', 3.48),
  ('RFQQRMQTHV [KIRREL1, Q96J84]', 'pKd', 'below the threshold'),
  ('VKRNSKETVV [MARCHF3, Q86UD3]', 'pKd', 'below the threshold'),
  ('DDASLPVSDV [PLEKHA1, Q9HB21]', 'pKd', 3.57),
  ('TRKRSGEAAV [PFKM, P08237]', 'pKd', 'below the threshold'),
  ('KPGKGSETVV [FZD4, Q9ULV1]', 'pKd', 'below the threshold'),
  ('DFLSTFHIRI [CIB2, O75838]', 'pKd', 'below the threshold'),
  ('KSRVAFFEEL [NF2, P35240]', 'pKd', 3.76),
  ('SRSVVESDEL [MYPN, Q86TC9]', 'pKd', 5.11),
  ('EDLEDEWEVI [TECPR2, O15040]', 'pKd', 'below the threshold'),
  ('RDPPAEWTRV [PTPN18, Q99952]', 'pKd', 'below the threshold'),
  ('NIAESLESLV [PTPRZ1, P23471]', 'pKd', 'below the threshold'),
  ('NISYRRESAI [KCNJ4, P48050]', 'pKd', 'below the threshold'),
  ('PPGKHLVTEV [KCNA7, Q96RP8]', 'pKd', 'below the threshold'),
  ('RSSGGDDFWF [KCNV1, Q6PIU1]', 'pKd', 'below the threshold'),
  ('LPAVCYDIDI [PTTG2, Q9NZH5]', 'pKd', 'below the threshold'),
  ('ARSAAASNYV [CLDN4, O14493]', 'pKd', 'below the threshold'),
  ('NNNVVKVDSV [MTNR1A, P48039]', 'pKd', 'below the threshold'),
  ('ELSATVTTDC [TRIP6, Q15654]', 'pKd', 'below the threshold');
